# TEST_SYSTEM: EphB2 (h) (Homo sapiens, UniProt P29323)
# Sequence (P29323 19-1055): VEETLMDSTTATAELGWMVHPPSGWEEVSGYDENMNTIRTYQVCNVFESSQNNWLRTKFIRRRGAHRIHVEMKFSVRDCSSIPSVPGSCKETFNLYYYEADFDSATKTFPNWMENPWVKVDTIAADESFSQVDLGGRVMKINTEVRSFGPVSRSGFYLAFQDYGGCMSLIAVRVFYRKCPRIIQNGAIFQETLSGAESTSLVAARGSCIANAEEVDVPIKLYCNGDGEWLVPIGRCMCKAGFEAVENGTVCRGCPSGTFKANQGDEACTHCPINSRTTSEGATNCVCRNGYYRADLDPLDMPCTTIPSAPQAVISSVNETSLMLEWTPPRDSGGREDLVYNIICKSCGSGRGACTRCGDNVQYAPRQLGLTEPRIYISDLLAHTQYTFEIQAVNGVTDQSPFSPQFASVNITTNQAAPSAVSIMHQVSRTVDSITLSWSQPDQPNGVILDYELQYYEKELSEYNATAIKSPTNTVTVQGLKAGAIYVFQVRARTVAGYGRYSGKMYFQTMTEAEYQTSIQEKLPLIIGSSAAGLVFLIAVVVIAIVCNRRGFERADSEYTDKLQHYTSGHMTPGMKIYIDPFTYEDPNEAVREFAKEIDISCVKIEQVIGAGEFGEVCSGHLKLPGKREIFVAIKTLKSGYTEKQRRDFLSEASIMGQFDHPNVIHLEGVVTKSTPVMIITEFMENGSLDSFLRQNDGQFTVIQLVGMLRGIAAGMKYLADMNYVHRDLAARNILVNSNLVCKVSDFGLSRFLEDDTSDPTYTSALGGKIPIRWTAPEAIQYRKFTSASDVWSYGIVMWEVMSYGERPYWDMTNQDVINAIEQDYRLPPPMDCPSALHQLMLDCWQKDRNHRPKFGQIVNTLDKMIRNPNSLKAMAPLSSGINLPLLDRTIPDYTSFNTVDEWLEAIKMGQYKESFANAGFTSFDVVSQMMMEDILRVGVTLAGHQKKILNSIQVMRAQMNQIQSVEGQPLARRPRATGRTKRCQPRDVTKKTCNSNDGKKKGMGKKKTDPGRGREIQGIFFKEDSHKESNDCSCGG
# PROTOCOL_NOTES: Kinase Profiling Assay
# Type: biochemical
# PARTICULARS: 100 μM
MEASURED_ENDPOINT: % activity (%)

> print(dat)
                           primary.sequence  readout.number
1  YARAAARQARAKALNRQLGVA (Mammalian) [MMI-0200]             128
2          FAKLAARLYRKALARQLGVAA [MMI-0300]              18
3  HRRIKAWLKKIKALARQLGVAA (Mammalian) [MMI-0500]              70
4        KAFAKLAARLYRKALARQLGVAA [MMI-0400]              22

* * *

# TEST_SYSTEM: CDK6/cyclinD3 (h) (Homo sapiens, UniProt Q00534)
# Construct: purchased Millipore
# Sequence (Q00534 whole entry): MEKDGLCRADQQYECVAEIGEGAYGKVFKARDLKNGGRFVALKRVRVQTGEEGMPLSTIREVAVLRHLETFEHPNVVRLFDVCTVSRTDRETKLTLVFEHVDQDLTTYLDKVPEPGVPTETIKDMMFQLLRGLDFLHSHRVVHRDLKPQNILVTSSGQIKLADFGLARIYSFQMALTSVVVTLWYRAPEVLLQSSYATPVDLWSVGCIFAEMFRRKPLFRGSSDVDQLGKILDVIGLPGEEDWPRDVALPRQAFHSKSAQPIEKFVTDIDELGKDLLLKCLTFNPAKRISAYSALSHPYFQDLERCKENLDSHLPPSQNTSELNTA
# Sequence (P30281 whole entry partner): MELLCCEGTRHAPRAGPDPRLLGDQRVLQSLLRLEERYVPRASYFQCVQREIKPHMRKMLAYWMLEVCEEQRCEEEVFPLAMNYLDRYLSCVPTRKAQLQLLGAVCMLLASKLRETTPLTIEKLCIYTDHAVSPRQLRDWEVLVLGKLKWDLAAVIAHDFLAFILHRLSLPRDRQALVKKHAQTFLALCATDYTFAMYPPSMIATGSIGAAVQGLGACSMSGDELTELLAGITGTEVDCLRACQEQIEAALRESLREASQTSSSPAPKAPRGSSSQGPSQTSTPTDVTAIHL
# PROTOCOL_NOTES: Kinase Profiling Assay
# Format: biochemical
# PARTICULARS: 100 μM
MEASURED_ENDPOINT: % activity

> print(dat)
                           primary.sequence  result
1  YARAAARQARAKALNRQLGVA (Mammalian) [MMI-0200]    100%
2  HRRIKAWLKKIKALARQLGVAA (Mammalian) [MMI-0500]     23%
3        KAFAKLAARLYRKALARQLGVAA [MMI-0400]     85%
4          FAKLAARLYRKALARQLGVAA [MMI-0300]     86%

* * *

# TEST_SYSTEM: SAPK3 (h) (Homo sapiens, UniProt P53778)
# Sequence (P53778 1-367): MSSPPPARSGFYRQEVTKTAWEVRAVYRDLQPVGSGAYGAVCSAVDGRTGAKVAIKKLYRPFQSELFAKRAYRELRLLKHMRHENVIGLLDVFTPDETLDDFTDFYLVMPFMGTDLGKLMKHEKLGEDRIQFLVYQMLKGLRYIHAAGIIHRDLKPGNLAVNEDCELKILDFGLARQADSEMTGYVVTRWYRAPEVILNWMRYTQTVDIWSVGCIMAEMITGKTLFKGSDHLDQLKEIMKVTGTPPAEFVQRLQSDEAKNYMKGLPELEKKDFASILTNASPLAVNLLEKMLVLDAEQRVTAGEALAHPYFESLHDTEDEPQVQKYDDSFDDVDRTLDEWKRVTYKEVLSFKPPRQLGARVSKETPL
# PROTOCOL_NOTES: Kinase Profiling Assay
# Format: biochemical
# PARTICULARS: 100 μM
MEASURED_ENDPOINT: % activity (%)

> print(dat)
                           primary.sequence                               test.system  measured.endpoint  readout.units  readout.number
1          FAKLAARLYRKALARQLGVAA [MMI-0300]  SAPK3 (h) (Homo sapiens, UniProt P53778)         % activity              %              84
2  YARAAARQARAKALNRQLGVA (Mammalian) [MMI-0200]  SAPK3 (h) (Homo sapiens, UniProt P53778)         % activity              %              97
3        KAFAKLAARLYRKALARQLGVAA [MMI-0400]  SAPK3 (h) (Homo sapiens, UniProt P53778)         % activity              %              79
4  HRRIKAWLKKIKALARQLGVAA (Mammalian) [MMI-0500]  SAPK3 (h) (Homo sapiens, UniProt P53778)         % activity              %              24

* * *

# TEST_SYSTEM: STK33 (h) (Homo sapiens, UniProt Q9BYT3)
# Sequence (Q9BYT3 whole entry): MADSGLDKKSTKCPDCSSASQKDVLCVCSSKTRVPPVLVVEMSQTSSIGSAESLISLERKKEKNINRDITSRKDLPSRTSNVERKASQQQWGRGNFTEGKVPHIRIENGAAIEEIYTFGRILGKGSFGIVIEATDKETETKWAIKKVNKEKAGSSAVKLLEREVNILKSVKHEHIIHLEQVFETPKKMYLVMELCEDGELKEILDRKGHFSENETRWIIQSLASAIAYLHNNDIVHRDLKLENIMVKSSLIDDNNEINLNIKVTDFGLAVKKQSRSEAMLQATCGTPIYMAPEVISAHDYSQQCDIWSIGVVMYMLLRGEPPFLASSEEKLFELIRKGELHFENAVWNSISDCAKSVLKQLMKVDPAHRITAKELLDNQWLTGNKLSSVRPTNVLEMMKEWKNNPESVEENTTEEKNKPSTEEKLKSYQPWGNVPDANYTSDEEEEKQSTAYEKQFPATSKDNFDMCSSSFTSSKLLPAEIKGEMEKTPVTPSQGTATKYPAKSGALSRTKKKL
# PROTOCOL_NOTES: Kinase Profiling Assay
# Type: biochemical
# PARTICULARS: 100 μM
MEASURED_ENDPOINT: % activity (%)

> print(dat)
                           primary.sequence  readout.number
1  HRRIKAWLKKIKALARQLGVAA (Mammalian) [MMI-0500]              16
2  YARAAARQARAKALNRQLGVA (Mammalian) [MMI-0200]              98
3          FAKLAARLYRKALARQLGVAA [MMI-0300]              45
4        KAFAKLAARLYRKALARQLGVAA [MMI-0400]              52

* * *

# TEST_SYSTEM: SAPK2a(T106M) (h) (Homo sapiens, UniProt Q16539, T106M)
# Sequence (Q16539 whole entry T106M): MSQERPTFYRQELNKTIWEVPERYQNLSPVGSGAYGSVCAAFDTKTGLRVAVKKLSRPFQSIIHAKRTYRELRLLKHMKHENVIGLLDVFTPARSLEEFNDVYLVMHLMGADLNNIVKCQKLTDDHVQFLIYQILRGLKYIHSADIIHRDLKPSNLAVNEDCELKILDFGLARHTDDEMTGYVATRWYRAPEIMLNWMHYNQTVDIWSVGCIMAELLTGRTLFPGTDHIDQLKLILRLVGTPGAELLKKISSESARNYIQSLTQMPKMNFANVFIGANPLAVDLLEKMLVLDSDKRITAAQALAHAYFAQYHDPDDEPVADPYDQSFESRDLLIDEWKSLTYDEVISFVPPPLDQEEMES
# PROTOCOL_NOTES: Kinase Profiling Assay
# Format: biochemical
# PARTICULARS: 100 μM
MEASURED_ENDPOINT: % activity (%)

> print(dat)
                           primary.sequence                               test.system  readout.number
1  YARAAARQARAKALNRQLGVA (Mammalian) [MMI-0200]  SAPK2a(T106M) (h) (Homo sapiens, UniProt Q16539, T106M)             100
2          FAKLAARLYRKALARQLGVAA [MMI-0300]  SAPK2a(T106M) (h) (Homo sapiens, UniProt Q16539, T106M)              97
3  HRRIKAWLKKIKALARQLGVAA (Mammalian) [MMI-0500]  SAPK2a(T106M) (h) (Homo sapiens, UniProt Q16539, T106M)              32
4        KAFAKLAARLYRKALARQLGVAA [MMI-0400]  SAPK2a(T106M) (h) (Homo sapiens, UniProt Q16539, T106M)              99

* * *

# TEST_SYSTEM: PKG1α (h) (Homo sapiens)
# Sequence (Q13976 1-671): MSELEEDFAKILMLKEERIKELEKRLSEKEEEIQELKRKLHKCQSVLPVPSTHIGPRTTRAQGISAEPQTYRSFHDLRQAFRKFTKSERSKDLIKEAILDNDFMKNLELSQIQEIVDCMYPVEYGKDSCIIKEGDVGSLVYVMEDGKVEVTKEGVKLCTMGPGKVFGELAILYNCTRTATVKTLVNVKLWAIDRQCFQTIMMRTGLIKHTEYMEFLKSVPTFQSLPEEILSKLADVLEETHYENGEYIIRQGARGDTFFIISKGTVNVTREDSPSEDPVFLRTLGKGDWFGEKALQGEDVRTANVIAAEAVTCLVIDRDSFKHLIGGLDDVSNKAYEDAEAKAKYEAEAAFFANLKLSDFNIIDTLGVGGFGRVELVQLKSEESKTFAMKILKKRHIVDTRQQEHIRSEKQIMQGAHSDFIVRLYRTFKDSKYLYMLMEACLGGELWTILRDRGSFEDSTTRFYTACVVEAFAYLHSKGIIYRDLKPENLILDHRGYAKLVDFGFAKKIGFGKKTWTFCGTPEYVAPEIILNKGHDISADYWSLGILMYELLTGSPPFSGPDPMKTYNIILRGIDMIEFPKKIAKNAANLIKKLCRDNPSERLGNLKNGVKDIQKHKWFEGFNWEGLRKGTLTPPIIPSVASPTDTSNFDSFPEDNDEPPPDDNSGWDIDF
# PROTOCOL_NOTES: Kinase Profiling Assay
# Assay type: biochemical
# PARTICULARS: 100 μM
MEASURED_ENDPOINT: % activity

> print(dat)
                           primary.sequence  result
1        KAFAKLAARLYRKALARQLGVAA [MMI-0400]     58%
2  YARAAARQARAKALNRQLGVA (Mammalian) [MMI-0200]     70%
3          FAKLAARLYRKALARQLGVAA [MMI-0300]     64%
4  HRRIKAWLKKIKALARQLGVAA (Mammalian) [MMI-0500]     25%
